PROTOCOL_DESCRIPTION: soluble on expression in E. coli; label from the status in PepcDB or PDB records
MEASURED_PARAMETER: soluble on expression in E. coli

[[record]]
primary_sequence = "MRGKAWMLTAVALTGLGLAQIRADGSSTVYPITQAVAEEFVTRNPQVRISVAFSGTGAGFQKFCRGETDVQNASRPIRKSELEACQKAGIQFIEIPVAYDALSILVNRQNTWAQCLTTAQLKSIWEPNAKVNYWKDLNPAWPNRRIVLFGAGTDSGTFDYFTEAIMGRAGSIRKDYFPSEDDNVIMRGVTGNPYAMAFVGFAYYEENKDKVKAVAIDHGKGCVLPSRETVLDGTYQPLSRPLFIYVNVKSLDRPEVQAFVDFYLSPAARRAIRSTGYVELPDEAYRIGQGLVARKKTGSFFTDLPPGTPLAKFIEELRKEVQ"
measured_parameter = "soluble on expression in E. coli"
recorded_measurement = "soluble"

[[record]]
primary_sequence = "MIIYRDLISHDVMFSDIYKIREIADGLCLEVEGKMVSRTEGNIDDSLIGGNASAEGPEGEGTESTVITGVDIVMNHHLQETSFTKEAYKKYIKDYMKSIKGKLEEQRPERVKPFMTGAAEQIKHILANFKNYQFFIGENMNPDGMVALLDYREDGVTPYMIFFKDGLEMEKCLEHHHHHH"
measured_parameter = "soluble on expression in E. coli"
recorded_measurement = "soluble"

[[record]]
primary_sequence = "MASIVFSTIGNPKGYQKVTYEIDGEKFESNVSVLALRDLLKVDKTVVILGISVADVYNCKYADYRSCKECIIQNSKNDLGISESYVVAPNVYQKFKGKPDHYFTYIYYHSLRILEKEGINEVFIDTTHGINYMGVLAKEAIQLAVSAYAAKSEKEVKVSLYNSDPVGKDVSDTVKLHEIEAIKISPLSGLKYVTYQILNKDKNFFNKIFSDSVNAIPRFATALDNGLFIYLSEKDSSLHLKRLEDDLSKDPLLTPSENEINVVYKDMKYALSHALFYVISRFSGNVDLDTLRHYAETYADKVTRAIIENEVDKIEKYQMGSERKLLGEYMKVEGKGFDKRILYAHGGLPYAGTYVYKEKDKVYVTYGDKIDEIERQI"
measured_parameter = "soluble on expression in E. coli"
recorded_measurement = "soluble"


###

PROTOCOL_DESCRIPTION: soluble on expression in E. coli; label from the status in PepcDB or PDB records
MEASURED_PARAMETER: soluble on expression in E. coli

Recorded soluble on expression in E. coli, per entry:
[[record]]
primary_sequence = "MSLCDRSEVGDVSLGMFTLKDIKINNLTDPVVTGVTCHVASIEADLSLADPSDSSISCRQTGEITPEMIAQIDKSSSGEVVFQKSKSIFFKSMKIRRIFDAKNQTLMYLSYSTKETSGSFKHSLSTVPLWGTQAYNAFPETQNKEGHHHHHH"
measured_parameter = "soluble on expression in E. coli"
recorded_measurement = "soluble"

[[record]]
primary_sequence = "MAHHHHHHMARTLLLNIQHHQPDLGLSEVDIELGMLAGLLHDVGHGPFSHLFEDVVSRRCGIEFNHEDMSEKIARRVLRDLVPQTHVDVVVGLMRGKALLGITYGEIISNKRNGIDVDRLDYFIRDSMCCFGKPTVDVRVNRLFNSARIVCEEGQWQLGFEQKLALSLREIFTLRAKLHKNVYQHQVTKAIGHMIGDVIHAAAPHFRVGGHTLVECAQDETLFLKLGDWILEAIEASEAPHLAEAHAILHRLRTRDIYRVAYSSALDITMRAPMAAVDWPAAILEHAHPSFPLNADDFIAEVVVINQGKGTEDPLESVLFFNPKKPSQPLTRLKPAEDLKHGSPLFTPLQFEERTLMVFERRPTNGAVQRACERLNADPKYAAFFTDSLPFYNTK"
measured_parameter = "soluble on expression in E. coli"
recorded_measurement = "soluble"

[[record]]
primary_sequence = "GSASDNAAYWSIATTMRSDNKALGAVSDALGMGAAKVDTASAGMDAAIKVVTDIKAKVVAAKEQGVDKTKVQEEVSQLLDQLKSIGTSASFNGENWLVSSANATKTVVSGFVRDAGGTVSVKTTDYALDANSMLYTEGTPGTIDANSGILNATGATTTVGAKTYTQISVLDMNVGTDDLDNALYSVETALTKMTSAGAKLGSLSARIDLQSGFADKLSDTIEKGVGRLV"
measured_parameter = "soluble on expression in E. coli"
recorded_measurement = "not soluble"

[[record]]
primary_sequence = "MAHHHHHHMAKLLPPPFHGYIRKMFFPLRNAASASRKCCLHTHVQQKNGMMKTTPLISKRSYFTSLYDTKTEKTKLMNEMDDLYDHILTSNWNDSVHLVLNVSIWEGILNSIEDKVKLYEQDEDIMKKKKIINEIFDVLFILEDLRDHVNELLEQSSRASGLAGTHILASFKIENMNEHIEFLKTKYDELLLKYPLYKYQIDMVLGKGLALLRQKYNFEWRHMHNFFF"
measured_parameter = "soluble on expression in E. coli"
recorded_measurement = "not soluble"

[[record]]
primary_sequence = "METKKQSESETYVERMVLPEDMDIYEYLYGGRLMEWIDNCASIVATKHCRKRTVTGSIDSLFFLLPIHLGDMVILHGYINYTTKSTMEIEIDVIKEEGLTGIRRYATKAYLTYVAIDSDGRPTEIPQIVPETDEEKRRYQDAEKRAEERRKRLESIKQQLASMVP"
measured_parameter = "soluble on expression in E. coli"
recorded_measurement = "not soluble"


Continue with the next sequence.
I'd like to know its soluble on expression in E. coli. The sequence in question is KFLHEISLVLQTSVDLDEVLSVVMTAITAGKGFGMNRAFLLLTDKERKHLRGYLGVGPRNYGEAWFIWDEISRDDFTLKEMAKNFYQTKFTSEKQKFHDILENLTIPLSEHDHILVRALREKKPLLVENAFHNPDCDYSLTQTLGVDTFLITPLVSRNRRIGVIISDNCVTHKPITPQDVQSLETFAFPVAFAIERASLYERLQEE
not soluble
